- experimental target: T1, fXa (UniProt P00742 41-179; P00742 235-488)
- T1 construct: also called factor Xa
- T1 sequence (P00742 41-179 limits assumed, form in doubt, chain 1 of 2): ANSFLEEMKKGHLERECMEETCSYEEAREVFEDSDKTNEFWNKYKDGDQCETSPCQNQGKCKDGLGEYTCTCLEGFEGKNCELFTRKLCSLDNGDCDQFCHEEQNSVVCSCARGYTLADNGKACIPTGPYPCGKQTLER
- T1 sequence (P00742 235-488 limits assumed, form in doubt, chain 2 of 2): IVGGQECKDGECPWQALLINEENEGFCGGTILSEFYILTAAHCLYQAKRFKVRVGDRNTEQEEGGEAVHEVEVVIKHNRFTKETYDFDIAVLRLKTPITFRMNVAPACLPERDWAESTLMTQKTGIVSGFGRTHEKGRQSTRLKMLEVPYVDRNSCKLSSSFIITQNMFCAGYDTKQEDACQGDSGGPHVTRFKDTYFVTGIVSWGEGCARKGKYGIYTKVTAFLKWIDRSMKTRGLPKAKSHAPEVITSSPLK
- procedure details: pseudo-first-order inhibition kinetics, residual chromogenic activity (S2222)
quantity measured: second-order rate constant of inhibition (M⁻¹ s⁻¹)
Give the number; M⁻¹ s⁻¹ is assumed, so skip it.

Query: Name the recorded second-order rate constant of inhibition of the binder listed here: FL α1AT Pitts C232S P2KP1′H (other, E. coli, purified; also called 1.A12) SDPQGDAAQKTDTSHHDQDHPTFNKITPNLAEFAFSLYRQLAHQSNSTNIFFSPVSIATAFAMLSLGTKADTHDEILEGLNFNLTEIPEAQIHEGFQELLRTLNQPDSQLQLTTGNGLFLSEGLKLVDKFLEDVKKLYHSEAFTVNFGDTEEAKKQINDYVEKGTQGKIVDLVKELDRDTVFALVNYIFFKGKWERPFEVKDTEEEDFHVDQVTTVKVPMMKRLGMFNIQHSKKLSSWVLLMKYLGNATAIFFLPDEGKLQHLENELTHDIITKFLENEDRRSASLHLPKLSITGTYDLKSVLGQLGITKVFSNGADLSGVTEEAPLKLSKAVHKAVLTIDEKGTEAAGAMFLEAIKRHIPPEVKFNKPFVFLMIEQNTKSPLFMGKVVNPTQK
Result: 620
